molecular target: Histamine H3 receptor (Homo sapiens, UniProt Q9Y5N1); assay: Antagonist potency against human histamine H3 receptor expressed in CHO cells was determined by GTPgamma-S-assay
Sequence (Q9Y5N1 whole entry): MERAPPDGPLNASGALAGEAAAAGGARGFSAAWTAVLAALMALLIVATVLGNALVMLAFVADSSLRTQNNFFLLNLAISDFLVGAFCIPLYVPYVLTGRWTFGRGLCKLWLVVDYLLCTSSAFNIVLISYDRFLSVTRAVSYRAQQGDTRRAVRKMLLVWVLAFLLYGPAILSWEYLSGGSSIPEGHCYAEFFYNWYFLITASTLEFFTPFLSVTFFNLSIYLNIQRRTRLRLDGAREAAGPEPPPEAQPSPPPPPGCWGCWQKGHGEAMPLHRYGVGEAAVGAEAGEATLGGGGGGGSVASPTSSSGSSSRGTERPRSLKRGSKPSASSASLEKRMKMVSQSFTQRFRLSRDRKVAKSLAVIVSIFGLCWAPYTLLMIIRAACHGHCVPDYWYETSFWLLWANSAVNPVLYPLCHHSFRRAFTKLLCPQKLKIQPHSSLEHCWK
pKi: −log10 of the molar value.
measured-quantity: pKi

P = CCC(CC)N1CCN(C(=O)CCC(=O)c2ccc(OC)c(F)c2)CC1
Q = CCC(CC)N1CCN(C(=O)CCC(=O)c2ccc(Cl)cc2)CC1
R = CCC(CC)N1CCN(C(=O)CCC(=O)c2ccc(C(F)(F)F)cc2)CC1
Order by pKi, smallest first, the items presented above. Thanks in advance for listing the labels in the requested order.
R, Q, P
(R: 8.85, Q: 9.07, P: 9.37)
